Assay Text: Solubility of glycerol-containing formulations (post vortexing, 30 min and overnight at 18° C.)
Assay type: physicochemical
Details: glycerol-containing formulation, 18 °C, aqueous with cosolvent or surfactant or cyclodextrin, compound 2 mg/mL; 30% glycerol; after 30 minutes incubation at 18° C.; read-out: Solubility of glycerol-containing formulations after 30 min incubation at 18° C., 30%
Measured Endpoint: solubility at 30 min

In [3]: df
Out[3]:
                                   compound     measured_endpoint        result
0  CCN1/C(=C/C(C)=C/c2sc3ccccc3[n+]2CC)Sc2ccccc21 [JAC-B2.5]  solubility at 30 min  < 2000 µg/mL
1  CCN1/C(=C/C=C/c2oc3ccccc3[n+]2CC)Oc2ccccc21 [JAC-R1, 3′,3′-Diethyloxacarbocyanine iodide]  solubility at 30 min  < 2000 µg/mL

Now turn to the next compound.
# return recorded solubility at 30 min for input CCN1/C(=C/C=C/c2sc3ccccc3[n+]2CC)Sc2ccccc21 [JAC-B1, 3′,3′-Diethylthiacarbocyanine iodide]
< 2000 µg/mL
